experiment summary: chemical genetic growth profiling, strain panel (AID 1159580);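 further: tested at 20 µM; growth read once vehicle control cultures reached saturation at 30 °C; 1 = growth at the plate median or of vehicle wells; lower values mean less growth of the strain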
settings: S. cerevisiae deletion strains, growth OD, locus YCR088W, strain abp1, stronger effect = lower value
Out of some 5,500 compounds screened, about 2,000 (36%) were called active. Roughly 18% stayed inconclusive and do not appear here. This is one part of the list.
readout label: normalized growth
Form field (numeric): enter value without unit.

Example entries begin here.
compound	normalized growth
CC1(C)C(=O)C=C[C@@]2(C)C1CC(=O)[C@]1(C)C2CC[C@@]2(C)[C@H](c3ccoc3)OC(=O)[C@H]3O[C@]321 (some centres undefined)	0.998
CCCCCc1c2c(cc(O)c1C(=O)O)OC(=O)c1c(cc(OC)cc1C(=O)CCCC)O2	1
O=C1C=C2C(=CCOC2O)O1 (centres undefined)	0.792
COc1ccc(-c2cc(=O)c3c(O)cc(O[C@@H]4O[C@H](CO[C@H]5O[C@H](C)[C@@H](O)[C@H](O)[C@@H]5O)[C@@H](O)[C@H](O)[C@H]4O)cc3o2)cc1O	1.01
C[C@]12CCC3c4ccc(O)cc4CCC3C1CC[C@@H]2O (some centres undefined)	1.03
COC1=CC(=O)C(O)=C/C1=C\C=C\c1ccccc1	0.0619
CC1(C)C=CC(=O)[C@@]2(C)C1CC(=O)[C@]1(C)C2CC[C@@]2(C)[C@H](c3ccoc3)OC(=O)C3OC321 (some centres undefined)	1
O=c1c(O)c(-c2ccc(O)c(O)c2)oc2c(O[C@@H]3O[C@H](CO)[C@H](O)[C@@H](O)[C@H]3O)c(O)cc(O)c12	1
COc1ccccc1/C=C\C(=O)O	0.996
CNC(C)C(O)c1ccccc1 (centres undefined)	1.02

// query What measured normalized growth goes with CCN(Cc1ccncc1)C(=O)C(CO)c1ccccc1 (centres undefined) ?
// result 1.02

// query What measured normalized growth goes with CC1O[C@@H](Oc2c(-c3ccc(O)c(O)c3)oc3cc(O)cc(O)c3c2=O)[C@H](O)[C@H](O)[C@H]1O (some centres undefined) ?
// result 0.985

// query What measured normalized growth goes with `CCCCCCCCCCCC1=C(O)C(=O)C=C(O)C1=O` ?
// result 0.723

###

experiment summary: chemical genetic growth profiling, strain panel (AID 1159580)
settings: S. cerevisiae deletion strains, growth OD, locus YNL128W, strain TEP1, stronger effect = lower value
Screen size: about 5,500 compounds; about 2,000 (36%) were called active. Inconclusive results (about 18%) are left out. Some of the results follow.
readout label: normalized growth
Form field (numeric): enter value without unit.

Example entries begin here.
compound	normalized growth
CC(C)C1COc2cc3oc(=O)ccc3cc2O1 (stereo not given)	0.348
COc1cc(O)c2c(=O)c(O)c(-c3ccc(O)c(O)c3)oc2c1	0.935
CNC(=O)Oc1cccc2c1OC(C)(C)O2	1.03

// query What measured normalized growth goes with `CC(C)(C)c1cc(C=C(C#N)C#N)cc(C(C)(C)C)c1O` ?
// result 0.973

// query What measured normalized growth goes with CC(=O)Oc1ccc2c(c1C(C)C)CCC1C(C)(C)CCC[C@]21C (stereo not given in full) ?
// result 1.02

// query What measured normalized growth goes with CN1CC(C(=O)NC2(C)OC3(O)C4CCCN4C(=O)C(Cc4ccccc4)N3C2=O)CC2c3cccc4[nH]cc(c34)CC21 (stereo not given) ?
// result 0.994

// query What measured normalized growth goes with COc1ccc2c3c1OC1C(O)CC=C4C(C2)N(C)CCC431 (stereo not given) ?
// result 1.02

// query What measured normalized growth goes with CC1(C)C(=O)C=C[C@@]2(C)C1CC(=O)[C@]1(C)C2CC[C@@]2(C)[C@H](c3ccoc3)OC(=O)[C@H]3O[C@]321 (stereo not given in full) ?
// result 0.978

// query What measured normalized growth goes with `CC1=NN=C(c2ccc(N)cc2)c2cc3c(cc2C1)OCO3` ?
// result 0.983

// query What measured normalized growth goes with `C=C(C)[C@H]1CN[C@H](C(=O)O)[C@H]1CC(=O)O` ?
// result 1

// query What measured normalized growth goes with `Brc1ccc(-c2ccn[nH]2)s1` ?
// result 0.94

// query What measured normalized growth goes with `COc1cc2c(cc1OC)[C@@H](c1ccccc1)CN(C)CC2` ?
// result 1.01

// query What measured normalized growth goes with CC(=O)[C@@]1(O)CCC2C3C[C@H](C)C4=CC(=O)C=CC4(C)[C@@]3(F)[C@@H](O)C[C@@]21C (stereo not given in full) ?
// result 1.01

// query What measured normalized growth goes with CC(=O)OC1CN2CCC1CC2 (stereo not given) ?
// result 0.997

###

experiment summary: chemical genetic growth profiling, strain panel (AID 1159580)
settings: S. cerevisiae deletion strains, growth OD, locus YLR371W, strain rom2, stronger effect = lower value
Hit rate of the full screen: of about 5,500 compounds, about 2,000 (36%) were called active. Another 18% or so got no clear call; they are omitted. This is one part of the list.
Form field: normalized growth (one value per entry).
Form field (numeric): enter value without unit.

Example entries begin here.
compound	normalized growth
O=c1cc(-c2ccc(O)cc2)oc2cc(O[C@@H]3O[C@H](CO)[C@@H](O)[C@H](O)[C@H]3O)cc(O)c12	0.964
CC12CCC3c4ccc(OC(=O)c5ccccc5)cc4CCC3C1CCC2O (stereo not drawn)	0.995
CNC(C)C(O)c1ccccc1 (stereo not drawn)	1.02
Oc1ccc2c(c1)OCC1(O)Cc3cc(O)c(O)cc3C21 (stereo not drawn)	0.988
CC(C)N(CCC(C(N)=O)(c1ccccc1)c1ccccn1)C(C)C (stereo not drawn)	0.997
O=C1C=C2C(=CCOC2O)O1 (stereo not drawn)	0.945
O=c1c(O)c(-c2ccc(O)c(O)c2)oc2cc(O)cc(O)c12	0.969

// query What measured normalized growth goes with `CCC/C=C1\OC(=O)C2=C1CCC=C2` ?
// result 0.998

###

experiment summary: chemical genetic growth profiling, strain panel (AID 1159580);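 further: tested at 20 µM; growth read once vehicle control cultures reached saturation at 30 °C; 1 = growth at the plate median or of vehicle wells; lower values mean less growth of the strain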
settings: S. cerevisiae deletion strains, growth OD, locus YNL298W, strain CLA4 (second series)
Hit rate of the full screen: of about 5,500 compounds, about 2,000 (36%) were called active. Another 18% or so got no clear call; they are omitted. Cut-off read from the data, not from the text of the source: active = normalized growth mostly below about 0.91 (no sharp cut-off); inconclusive = no clear call, values can overlap the other calls; inactive = mostly above about 0.92. The list shows a part of the results.
Use one of these outcomes when replying: 1 = active, 0 = inactive

Some solved entries appear below for comparison.
compound	group label
O=[N+]([O-])c1ccc(OCCCOc2ccc([N+](=O)[O-])cc2)cc1	0
Cn1[nH]c(=O)cc1C(=O)NN	0
ON=C(c1cccs1)c1cccs1	0
Cc1cc(Br)c(NC(=O)C(Cl)(Cl)Cl)c(Br)c1	0
Cn1c2c(c3c1CCCC3)CCCC2	0

// query For this compound, state the assay outcome: CCOC(=O)C1C(c2cccnc2)C(C(=O)OCC)C(O)(C(F)(F)F)NC1(O)C(F)(F)F (stereo not given)
// result 0

// query For this compound, state the assay outcome: `Cc1ccc(-c2csc(-c3ccc(Oc4ccc(C(F)(F)F)cn4)cc3)n2)c(C)c1`
// result 0

// query For this compound, state the assay outcome: CC(C)CC1NC(=O)NC1=O (stereo not given)
// result 0

// query For this compound, state the assay outcome: `C/C(=N/NC(=S)Nc1ccc(C(C)C)cc1)c1ccco1`
// result 1

// query For this compound, state the assay outcome: `CCOC(=O)N/N=C\c1ccccc1OCC`
// result 0

###

experiment summary: chemical genetic growth profiling, strain panel (AID 1159580);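 further: tested at 20 µM; growth read once vehicle control cultures reached saturation at 30 °C; 1 = growth at the plate median or of vehicle wells; lower values mean less growth of the strain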
settings: S. cerevisiae deletion strains, growth OD, locus YNL322C, strain KRE1 (second series), stronger effect = lower value
Hit rate of the full screen: of about 5,500 compounds, about 2,000 (36%) were called active. Another 18% or so got no clear call; they are omitted. The list shows a part of the results.
readout label: normalized growth
Form field (numeric): enter value without unit.

Example entries begin here.
molecule	normalized growth
O=c1c(O)c(-c2ccc(O)cc2O)oc2cc(O)cc(O)c12	0.987
OC1CC2CCCC(C1)N2Cc1ccccc1 (configuration not stated)	1
C[C@@H]([C@H](O)c1ccccc1)N(C)C	1
CCCCC1C(=O)N(c2ccccc2)N(c2ccc(O)cc2)C1=O (configuration not stated)	1.02
O=c1cc(-c2ccc(O)cc2)oc2cc(O[C@@H]3O[C@H](CO)[C@@H](O)[C@H](O)[C@H]3O)cc(O)c12	0.993

// query What measured normalized growth goes with CC(C)c1c(O)ccc2c1CCC1[C@@](C)(C=O)CCC[C@]21C (some centres not stated) ?
// result 1.02

// query What measured normalized growth goes with `CN1C[C@H](C(=O)N[C@]2(C)O[C@@]3(O)[C@@H]4CCCN4C(=O)[C@H](Cc4ccccc4)N3C2=O)C[C@@H]2c3cccc4[nH]cc(c34)C[C@H]21` ?
// result 0.989

###

experiment summary: chemical genetic growth profiling, strain panel (AID 1159580);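 further: tested at 20 µM; growth read once vehicle control cultures reached saturation at 30 °C; 1 = growth at the plate median or of vehicle wells; lower values mean less growth of the strain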
settings: S. cerevisiae deletion strains, growth OD, strain TSCII, stronger effect = lower value
Hit rate of the full screen: of about 5,500 compounds, about 2,000 (36%) were called active. Roughly 18% stayed inconclusive and do not appear here. Some of the results follow.
Form field: normalized growth (one value per entry).
Form field (numeric): enter value without unit.

mol	normalized growth
O=C(Nc1ccccc1)Nc1ccc(Cl)cc1[N+](=O)[O-]	0.965

// query What measured normalized growth goes with `Cc1ccc(C)n1-c1ccc(/C=C2/C(=O)Nc3ccccc32)cc1` ?
// result 0.967

// query What measured normalized growth goes with `O=C1Nc2ccccc2/C1=C\c1c(Cl)cccc1Cl` ?
// result 0.964

// query What measured normalized growth goes with `Oc1c(Cl)cc(Cl)cc1C=Nc1ccc(Sc2ccccc2)nc1Sc1ccccc1` ?
// result 0.95

// query What measured normalized growth goes with `FC(F)(F)c1ccc(N2CCc3ccccc3C2)c(NC(=S)Nc2cc(Cl)cc(Cl)c2)c1` ?
// result 0.972
